settings: buffer; pH 7.4; 200.0 µM
Measured solubility kinetic accompanies every entry in the list below.

smiles.string	value.units	sign.qualifier	solubility kinetic
Cc1cc(C(=O)COc2ccccc2C(N)=O)c(C)n1C	µg/mL	=	2.5
O=C(COC(=O)Cc1ccccc1F)NCCc1ccccc1	µg/mL	>	47.3
Cc1cc(C)cc(NC(=O)NC2CCCCCCC2)c1	µg/mL	=	1
CC(C)(C)NC(=O)NC(=O)CN1CCCc2ccccc21	µg/mL	=	11.9
Cc1ccc(-n2c(O)c(C=NCc3ccco3)c(=O)[nH]c2=S)cc1C	µg/mL	=	11.1
CC(C)c1ccc(OCC(=O)NCc2ccccc2)cc1	µg/mL	=	3.2
Cc1ccc(S(=O)(=O)Nc2ccc3c(c2)nc(C)n3C)cc1	µg/mL	=	0.8
O=C(OCC(=O)N1CCCC1=O)c1cc2ccccc2o1	µg/mL	>	43.1
CCCCCCc1c(O)nc(SCCN(C)C)[nH]c1=O	µg/mL	=	32.8
COc1ccc(CN(C)C(=O)c2[nH]c(C)c(C(C)=O)c2C)cc1F	µg/mL	>	49.9
O=C(Nc1ccc2nccnc2c1)Nc1ccccc1Cl	µg/mL	=	1
NS(=O)(=O)c1ccc(CCNC(=O)Cc2cccs2)cc1	µg/mL	=	31.8
CS(=O)(=O)c1ccc(NS(=O)(=O)c2ccc(Cl)c(C(=O)NC3=NCCS3)c2)cc1	µg/mL	=	24
O=c1[nH]c(N2CCOCC2)nc2ccccc12	µg/mL	>	34.7
Cc1c(Cl)cccc1NC(=O)NCc1ccccn1	µg/mL	=	38.5
COc1ccc(NCC(=O)n2c(C)c(C)c3ccccc32)cc1OC	µg/mL	=	4.9
Cc1nc(/C(N)=N/OC(=O)Cc2ccccc2)no1	µg/mL	=	24.4
O=C(Nc1cc(C(=O)N2CCN(c3ccccc3)CC2)ccc1Cl)c1cccs1	µg/mL	=	4.8
COC(=O)Cn1cnc2scc(-c3ccc(C)cc3)c2c1=O	µg/mL	>	47.2
O=C(COC(=O)c1ccc(S(=O)(=O)N2CCCC2)cc1)NCCc1ccc(F)cc1	µg/mL	=	6.2
Cc1ncc([N+](=O)[O-])n1CC(=O)Nc1ccccc1F	µg/mL	>	41.7
CCOc1ccc(S(=O)(=O)NCc2ccccn2)c(C)c1C	µg/mL	>	48.1
O=C(CSc1cccc(C(F)(F)F)c1)Nc1ccc(N2CCOCC2)cc1	µg/mL	=	7.7
CCOc1ccc2nc(N(CCN(C)C)C(=O)/C=C/c3cccs3)sc2c1.Cl	µg/mL	<	0.3
